Target: NS3-NS4A protease (Hepatitis C virus genotype 1a, UniProt P27958)
Construct: Recombinant E. coli or Baculovirus full-length NS3 was diluted to 3.33 μM with assay buffer; made in house; host or cells: E. coli or baculovirus (BV) system
Sequence (P27958 1027-1657): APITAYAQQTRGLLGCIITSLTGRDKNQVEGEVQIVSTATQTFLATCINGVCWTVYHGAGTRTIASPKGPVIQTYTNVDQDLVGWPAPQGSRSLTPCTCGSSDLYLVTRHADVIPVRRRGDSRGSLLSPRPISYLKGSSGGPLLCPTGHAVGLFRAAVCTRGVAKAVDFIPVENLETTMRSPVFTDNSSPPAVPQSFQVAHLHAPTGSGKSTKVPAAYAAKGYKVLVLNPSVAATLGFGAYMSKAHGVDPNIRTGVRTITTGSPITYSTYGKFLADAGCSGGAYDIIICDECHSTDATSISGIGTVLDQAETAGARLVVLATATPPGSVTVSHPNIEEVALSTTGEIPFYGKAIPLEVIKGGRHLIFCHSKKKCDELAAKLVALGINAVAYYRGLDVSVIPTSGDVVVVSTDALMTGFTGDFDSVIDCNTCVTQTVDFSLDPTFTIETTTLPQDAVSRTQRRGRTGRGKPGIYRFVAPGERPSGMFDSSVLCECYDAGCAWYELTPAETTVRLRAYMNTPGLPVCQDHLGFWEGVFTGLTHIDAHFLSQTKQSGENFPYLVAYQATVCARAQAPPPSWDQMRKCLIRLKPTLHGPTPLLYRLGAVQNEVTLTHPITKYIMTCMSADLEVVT
Assay: NS3-NS4A protease assay (NS3 inhibition assay, RETS1 substrate), Section B
Type: biochemical
Details: read-out: NS3-NS4A IC50
Observed property: IC50

{"Compound": "O=C(N[C@H]1CCCCC/C=C\\[C@@H]2C[C@@]2(C(=O)NS(=O)(=O)C2CC2)NC(=O)[C@@H]2C[C@@H](OC(=O)N3CCc4ccccc4C3)CN2C1=O)OC(CF)CF", "Tested target": "NS3-NS4A protease (Hepatitis C virus genotype 1a, UniProt P27958)", "IC50": "< 0.1 µM"}

# get_value(readout= IC50, system= NS3-NS4A protease (Hepatitis C virus genotype 1a, UniProt P27958)) for CC(C)(C)OC(=O)N[C@H]1CCCCC/C=C\[C@@H]2C[C@@]2(C(=O)O)NC(=O)[C@@H]2C[C@@H](OC(=O)N3Cc4cc(Cl)c(Cl)cc4C3)CN2C1=O
< 1 µM

Same read-out for COCC1c2ccc(OC)cc2CCN1C(=O)O[C@@H]1C[C@H]2C(=O)N[C@]3(C(=O)O)C[C@H]3/C=C\CCCCC[C@H](NC(=O)OC(C)(C)C)C(=O)N2C1 (stereo partly shown) ?
< 1 µM

Same read-out for CN(C)CC1c2ccccc2CCN1C(=O)O[C@@H]1C[C@H]2C(=O)N[C@]3(C(=O)O)C[C@H]3/C=C\CCCCC[C@H](NC(=O)OC(C)(C)C)C(=O)N2C1 (stereo partly shown) ?
< 10 µM

Same read-out for O=C(N[C@H]1CCCCC/C=C\[C@@H]2C[C@@]2(C(=O)O)NC(=O)[C@@H]2C[C@@H](OC(=O)N3Cc4ccccc4C3)CN2C1=O)OC1CCOCC1 ?
< 1 µM

Same read-out for O=C(N[C@H]1CCCCC/C=C\[C@@H]2C[C@@]2(C(=O)O)NC(=O)[C@@H]2C[C@@H](OC(=O)N3Cc4ccccc4C3)CN2C1=O)OCCF ?
< 1 µM

Same read-out for CC(C)(C)NC(=O)N[C@H]1CCCCC/C=C\[C@@H]2C[C@@]2(C(=O)NS(=O)(=O)C2CC2)NC(=O)[C@@H]2C[C@@H](OC(=O)N3Cc4ccccc4C3)CN2C1=O ?
< 0.1 µM
